SYSTEM_TESTED: T1, Human ACVR2A (human, UniProt P27037 20-135, limits assumed); note: test concentration or dose not given here
T1 construct: also called activin receptor, type II A
ASSAY_SUMMARY: ELISA
READOUT_TYPE: optical density (OD)
Value expressed in OD; do not type the unit.

Param item = 365_D11 (antibody, V domains shown, VH/VL only) VH: EVQLLESGGGLVQPGGSLRLSCAASGFTFDSYGMNWVRQAPGKGLEWVSNINYNSGYTSYADSVKGRFTISRDNSKNTLYLQMNSLRAEDTAVYYCARSANWHDTALDYWGQGTLVTVSS VL: DIQMTQSPSSLSASVGDRVTITCRASQSIVSYLNWYQQKPGKAPKLVIYAATSRASGVPSRFSGSGSGTDFTLTISSLQPEDFATYYCQQSYSSPLTFGGGTKVEIK ; retrieve measured optical density. 2.34

Param item = 370_B08 (antibody, V domains shown, VH/VL only) VH: EVQLLESGGGLVQPGGSLRLSCAASGFTFSDYSMNWVRQAPGKGLEWVANINYNGGYTGYADSVKGRFTISRDNSKNTLYLQMNSLRAEDTAVYYCARGATWHDTHLDYWGQGTLVTVSS VL: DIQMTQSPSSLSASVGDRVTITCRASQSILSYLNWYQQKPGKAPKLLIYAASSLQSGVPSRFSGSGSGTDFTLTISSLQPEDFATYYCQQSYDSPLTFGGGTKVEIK ; retrieve measured optical density. 3.13
